- system: Gal6S(b1-3)GlcNAc
- assayNotes: glycan array binding signal (z-score within array); higher = stronger binding
- conditionSummary: glycan notation: IUPAC condensed, linker removed
This excerpt belongs to a sample that is enriched for the strongest signals.
Below, each entry is listed alongside its reported glycan array binding signal (z-score).
The response must contain the number and no unit.

Use these answered entries as a reference point.
Given the entry CBM40 CPF071 (Clostridium perfringens) (protein) MAHHHHHHVGTGSNDDDDKSPDPMLSSLGEYKDINLESSNASNITYDLEKYKNLDEGTIVVRFNSKDSKIQSLLGISNSKTKNGYFNFYVTNSRVGFELRNQKNEGNTQNGTENLVHMYKDVALNDGDNTVALKIEKNKGYKLFLNGKMIKEVKDTNTKFLNNIENLDSAFIGKTNRYGQSNEYNFKGNIGFMNIYNEPLGDDYLLSKTGETK , report its measured glycan array binding signal (z-score). -0.48

What about Epa9 (Candida glabrata), CAGL0A01386g (protein) MGSSHHHHHHSSGLVPRGSHMDITPFAHYPRPEGCSSPPNAVSVGLHMDLYNYPYLYVKNPRTGFTNDTDSDADGETDGDSAGGIEGRAGQCWNPEYQDPNFPRYGYKKYGSFGSSDHVNGKISWDHNEFKEGCKPIMARLPTAYNYPAKITFSNFTMVLSGYFKPKSTGLYKFEIHADDFILFNFGSKNAFECCNREESIDNFGPYVAYAMWPNEADQELEVYLFEDSYYPIRLFYNNRDYHSKFMVGFYPPNTEEITYDFDGYLYMLDDTGNECKDSIRYKTVCDD ? -0.361

Consider the record given below.
Which glycan array binding signal (z-score) is reported for this binder? Aap arpt (Staphylococcus epidermidis) (protein) NNEAPQMSSTLQAEEGSNAEAPQSEPTKAEEGGNAEAAQSEPTKAEEGGNAEAPQSEPTKAEEGGNAEAAQSEPTKTEEGSNVKAAQSEPTKAEEGSNAEAPQSEPTKTEEGSNAKAAQSEPTKAEEGGNAEAAQSEPTKTEEGSNAEAPQSEPTKAEEGGYAEAPQSEPTKTEEGGNAEAPNVPTIKA -1.93
